Sourced from ChEMBL document CHEMBL2163236

- TARGET SYSTEM: Cannabinoid receptor 1 (Homo sapiens, UniProt P21554)
- Sequence (P21554 whole entry): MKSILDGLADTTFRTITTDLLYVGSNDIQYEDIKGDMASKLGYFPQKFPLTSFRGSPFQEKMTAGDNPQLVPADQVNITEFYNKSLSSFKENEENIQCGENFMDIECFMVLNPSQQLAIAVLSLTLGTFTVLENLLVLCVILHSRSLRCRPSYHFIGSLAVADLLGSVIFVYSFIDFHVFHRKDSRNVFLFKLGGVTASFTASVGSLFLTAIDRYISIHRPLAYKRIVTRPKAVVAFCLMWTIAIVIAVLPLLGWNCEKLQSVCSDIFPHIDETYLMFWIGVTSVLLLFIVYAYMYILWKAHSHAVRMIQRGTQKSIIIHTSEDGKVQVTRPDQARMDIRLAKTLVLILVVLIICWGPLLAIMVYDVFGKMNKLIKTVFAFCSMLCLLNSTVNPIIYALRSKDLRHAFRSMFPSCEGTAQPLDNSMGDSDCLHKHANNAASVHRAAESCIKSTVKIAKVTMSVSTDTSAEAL
- TEST METHOD NOTES: Displacement of [3H]CP-55940 from human recombinant CB1 receptor expressed in CHO cell membranes incubated for 90 mins by scintillation counting
pKi: −log10 of the molar value.
MEASURED PROPERTY: pKi

molecule="CC1COc2cccc3c(=O)c(C(=O)NC4CCCCCC4)cn1c23 (racemic)" measured_property=pKi val="< 5.00"
molecule="CCC1COc2c(N3CCCC3)ccc3c(=O)c(C(=O)NC45CC6CC(CC(C6)C4)C5)cn1c23 (racemic)" measured_property=pKi val="< 5.00"
molecule=CC(C)C[C@@H]1COc2cccc3c(=O)c(C(=O)NC45CC6CC(CC(C6)C4)C5)cn1c23 measured_property=pKi val="< 5.00"
